- targetDesc: ERα (Homo sapiens, UniProt P03372)
- assayDetails: In vitro nuclear receptor profile, ERα antagonism
- testContext: antagonist mode; read-out: ERα ant IC50
quantityKind: IC50

• CCC[C@@H]1Cc2cc(O)ccc2[C@H]2CC[C@@]3(C)[C@@H](C[C@H]4CC[C@H](O)C[C@]43O)[C@H]12 [Org 41621, reference compound] = > 1000 nM

----------
- targetDesc: ERβ (Homo sapiens)
- Sequence (Q92731 whole entry): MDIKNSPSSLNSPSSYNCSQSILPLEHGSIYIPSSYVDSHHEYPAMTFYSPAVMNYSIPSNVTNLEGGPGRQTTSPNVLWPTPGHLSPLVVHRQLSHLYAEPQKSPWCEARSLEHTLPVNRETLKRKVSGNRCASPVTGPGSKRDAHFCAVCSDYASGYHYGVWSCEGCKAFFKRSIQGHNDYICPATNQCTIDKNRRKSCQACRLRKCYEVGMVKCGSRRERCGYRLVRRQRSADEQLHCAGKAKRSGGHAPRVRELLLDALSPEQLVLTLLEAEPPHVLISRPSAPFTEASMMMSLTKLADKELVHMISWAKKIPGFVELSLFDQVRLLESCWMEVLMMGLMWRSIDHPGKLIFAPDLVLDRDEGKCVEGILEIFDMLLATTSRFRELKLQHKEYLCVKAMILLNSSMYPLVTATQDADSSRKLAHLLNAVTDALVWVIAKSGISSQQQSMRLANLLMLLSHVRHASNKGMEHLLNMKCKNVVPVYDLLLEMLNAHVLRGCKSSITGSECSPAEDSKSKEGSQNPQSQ
- assayDetails: In vitro nuclear receptor profile, ERβ antagonism
- testContext: antagonist mode; read-out: ERβ ant IC50
# reported IC50; entries follow
quantityKind: IC50

• CCC[C@@H]1Cc2cc(O)ccc2[C@H]2CC[C@@]3(C)[C@@H](C[C@H]4CCC(=O)C[C@]43O)[C@H]12 = 8.4 nM
• CCC[C@@H]1Cc2cc(O)ccc2[C@H]2CC[C@@]3(C)[C@@H](C[C@H]4CC[C@H](O)C[C@]43O)[C@H]12 [Org 41621, reference compound] = 3.8 nM

----------
# reported IC50; entries follow
- targetDesc: progesterone receptor B (PR-B) (Homo sapiens, UniProt P06401)
- Sequence (P06401 whole entry): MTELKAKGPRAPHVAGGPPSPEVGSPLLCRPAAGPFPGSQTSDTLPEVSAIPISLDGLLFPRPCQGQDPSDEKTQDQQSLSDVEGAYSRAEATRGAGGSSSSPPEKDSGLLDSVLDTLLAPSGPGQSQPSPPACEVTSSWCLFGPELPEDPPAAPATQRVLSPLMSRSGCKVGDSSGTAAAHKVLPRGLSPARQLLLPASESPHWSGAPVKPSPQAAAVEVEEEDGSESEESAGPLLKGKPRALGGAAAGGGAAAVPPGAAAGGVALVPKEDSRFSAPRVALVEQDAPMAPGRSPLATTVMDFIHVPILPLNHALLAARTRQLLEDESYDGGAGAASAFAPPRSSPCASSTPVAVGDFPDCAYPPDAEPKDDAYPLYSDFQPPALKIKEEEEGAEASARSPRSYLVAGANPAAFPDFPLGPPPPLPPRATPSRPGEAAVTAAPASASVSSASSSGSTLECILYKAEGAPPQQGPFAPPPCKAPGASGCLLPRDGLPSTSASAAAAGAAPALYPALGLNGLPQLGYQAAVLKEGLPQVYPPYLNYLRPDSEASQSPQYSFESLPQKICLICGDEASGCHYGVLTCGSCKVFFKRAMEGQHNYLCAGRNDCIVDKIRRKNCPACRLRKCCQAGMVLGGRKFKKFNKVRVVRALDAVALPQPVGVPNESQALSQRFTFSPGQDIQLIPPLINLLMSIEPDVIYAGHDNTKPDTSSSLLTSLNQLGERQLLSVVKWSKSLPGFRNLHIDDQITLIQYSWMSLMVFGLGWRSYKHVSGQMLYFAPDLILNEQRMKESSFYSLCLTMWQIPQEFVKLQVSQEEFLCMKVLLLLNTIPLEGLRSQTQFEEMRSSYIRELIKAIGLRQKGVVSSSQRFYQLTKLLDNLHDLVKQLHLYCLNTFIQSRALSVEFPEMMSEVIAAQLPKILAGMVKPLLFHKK
- assayDetails: In vitro nuclear receptor profile, PR-B antagonism
- testContext: antagonist mode; read-out: PR-B ant IC50
quantityKind: IC50 (nM)

- CCC[C@@H]1Cc2cc(O)ccc2[C@H]2CC[C@@]3(C)[C@@H](C[C@H]4CCC(=O)C[C@]43O)[C@H]12: 3.7
- CCC[C@@H]1Cc2cc(O)ccc2[C@H]2CC[C@@]3(C)[C@@H](C[C@H]4CC[C@H](O)C[C@]43O)[C@H]12 [Org 41621, reference compound]: 20.8

----------
- targetDesc: ERα (Homo sapiens, UniProt P03372)
- Sequence (P03372 1-595): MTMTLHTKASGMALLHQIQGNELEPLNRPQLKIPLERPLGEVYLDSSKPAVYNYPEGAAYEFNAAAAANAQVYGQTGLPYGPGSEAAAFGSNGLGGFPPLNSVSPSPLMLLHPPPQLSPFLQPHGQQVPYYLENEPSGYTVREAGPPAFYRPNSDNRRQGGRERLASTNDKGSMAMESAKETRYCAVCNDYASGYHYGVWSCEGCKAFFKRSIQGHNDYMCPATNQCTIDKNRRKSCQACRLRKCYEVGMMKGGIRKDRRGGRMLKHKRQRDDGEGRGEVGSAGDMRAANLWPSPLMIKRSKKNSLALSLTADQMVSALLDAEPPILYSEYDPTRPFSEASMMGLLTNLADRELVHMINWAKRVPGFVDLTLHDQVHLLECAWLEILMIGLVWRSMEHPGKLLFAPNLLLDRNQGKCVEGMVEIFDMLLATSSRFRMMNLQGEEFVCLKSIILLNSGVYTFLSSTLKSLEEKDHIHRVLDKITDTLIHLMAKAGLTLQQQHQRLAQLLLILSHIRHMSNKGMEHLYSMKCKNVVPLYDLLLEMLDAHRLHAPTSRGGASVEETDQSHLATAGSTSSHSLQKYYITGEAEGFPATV
- assayDetails: In vitro nuclear receptor profile, ERα agonism
- testContext: agonist mode; read-out: ERα ago EC50
pEC50: −log10 of the molar value.
quantityKind: pEC50

• CCC[C@@H]1Cc2cc(O)ccc2[C@H]2CC[C@@]3(C)[C@@H](C[C@H]4CC[C@H](O)C[C@]43O)[C@H]12 [Org 41621, reference compound] = 9.55
